The reported numbers originate from patent EP2298778A1.

Assay: Metabolic stability test (microsomal metabolism test)
Format: in vitro ADME
Settings: pH 7.4; human-derived liver microsomes, test compound remaining after addition of NADP+ and incubation at 37°C for 30 minutes; read-out: metabolic stability of T/C%
Protocol: (Test Example 3 Metabolic stability test) 100 µL of 100 mM phosphate buffer solution (pH 7.4) containing 3 µM test compound was added to 100 µL of reaction solution containing 100 mM phosphate buffer solution (pH 7.4), 30 mM glucose 6-phosphate, 10 mM MgCl2·6H2O, 3 units/mL glucose 6-phosphate 1-dehydrogenase, and 0.3 to 1.5 mgP/mL human liver microsomes and the mixture was incubated at 37°C for 20 minutes. […]
assay_readout: remaining at 0.5 h

Previously resolved entries follow.
[
  {
    "molecular_string": "CC[C@@H]1CC[C@@H](C(=O)N2CCNC3(CC3)C2)N1C(=O)C1=C(C(C)C)N2C(=N[C@@](C)(c3ccc(Cl)nc3)[C@H]2c2ccc(Cl)c(F)c2)S1",
    "remaining at 0.5 h": "≥ 50%"
  },
  {
    "molecular_string": "CC(C)C1=C(C(=O)N2[C@@H]3C[C@@H]3C[C@H]2C(=O)N2CC3(CC3)NC[C@@H]2C)SC2=N[C@@](C)(c3ccc(Cl)nc3)[C@@H](c3ccc(Cl)c(F)c3)N21",
    "remaining at 0.5 h": "≥ 50%"
  },
  {
    "molecular_string": "CC(C)C1=C(C(=O)N2[C@H](CF)CC[C@H]2C(=O)N2CCN(C)C3(CC3)C2)SC2=N[C@@](C)(c3ccc(Cl)nc3)[C@@H](c3ccc(Cl)c(F)c3)N21",
    "remaining at 0.5 h": "≥ 50%"
  },
  {
    "molecular_string": "CC(C)C1=C(C(=O)N2[C@H](C)CC[C@H]2C(=O)N2CCNC3(CC3)C2)SC2=N[C@@](C)(c3ccc(Cl)nc3)[C@@H](c3ccc(C(F)(F)F)c(F)c3)N21",
    "remaining at 0.5 h": "≥ 50%"
  },
  {
    "molecular_string": "CC[C@H]1CNC2(CC2)CN1C(=O)[C@@H]1CC[C@@H](C)N1C(=O)C1=C(C(C)C)N2C(=N[C@@](C)(c3ccc(Cl)nc3)[C@H]2c2ccc(Cl)c(F)c2)S1",
    "remaining at 0.5 h": "≥ 50%"
  }
]

Req: So what does the record say about remaining at 0.5 h for CC(C)C1=C(C(=O)N2C[C@@](C)(O)C[C@H]2C(=O)N2CC3(CC3)NC[C@@H]2C)SC2=N[C@@](C)(c3ccc(Cl)nc3)[C@@H](c3ccc(Cl)c(F)c3)N21 ?
Resp: ≥ 50%

Req: What about this compound? CCN(C(=O)C1=C(C(C)C)N2C(=N[C@@](C)(c3ccc(Cl)cc3)[C@H]2c2ccc(Cl)cc2)S1)C1(C(=O)N2CCNC3(CC3)C2)CC1
Resp: ≥ 50%

Req: Next record, please: CC(C)C1=C(C(=O)N2[C@H](C)CC[C@H]2C(=O)N2CCNC3(CC3)C2)SC2=N[C@@](C)(c3ccc(C#N)cc3)[C@@H](c3ccc(Cl)cc3)N21
Resp: ≥ 50%

Req: For CC[C@@H]1CC[C@@H](C(=O)N2CCN(C)C3(CC3)C2)N1C(=O)C1=C(C(C)C)N2C(=N[C@@](C)(c3ccc(Cl)nc3)[C@H]2c2ccc(Cl)c(F)c2)S1 then?
Resp: ≥ 50%

Req: Now the same for CC(C)C1=C(C(=O)N2[C@H](C)CC[C@H]2C(=O)N2C[C@@H](C)N(C)C3(CC3)C2)SC2=N[C@@](C)(c3ccc(Cl)nc3)[C@@H](c3ccc(Cl)c(F)c3)N21
Resp: ≥ 50%

Req: Again, but for CC(C)C1=C(C(=O)N2[C@H](CF)CC[C@H]2C(=O)N2CCNC3(CC3)C2)SC2=N[C@@](C)(c3ccc(Cl)nc3)[C@@H](c3ccc(Cl)c(F)c3)N21
Resp: ≥ 50%

###

experiment: Metabolic stability test (microsomal metabolism test); format: in vitro ADME; conditions: pH 7.4; human-derived liver microsomes, test compound remaining after addition of NADP+ and incubation at 37°C for 30 minutes; read-out: metabolic stability of T/C%
assay_readout: remaining at 0.5 h

As a guide, the following entries are already answered.
[
  {
    "molecular_string": "CC(C)C1=C(C(=O)N2[C@H](C)CC[C@H]2C(=O)N2CCN(CCO)C3(CC3)C2)SC2=N[C@@](C)(c3ccc(Cl)cc3)[C@@H](c3ccc(Cl)c(F)c3)N21",
    "remaining at 0.5 h": "≥ 50%"
  },
  {
    "molecular_string": "CC(C)C1=C(C(=O)N2[C@H](CF)CC[C@H]2C(=O)N2CCN(C)C3(CC3)C2)SC2=N[C@@](C)(c3ccc(Cl)cc3)[C@@H](c3ccc(Cl)cc3)N21",
    "remaining at 0.5 h": "≥ 50%"
  }
]

Now look at this entry.
Req: If you can, please state the reported remaining at 0.5 h value of CC(C)C1=C(C(=O)N2[C@H](C)CC[C@H]2C(=O)N2CC3(CC3)N(C(=O)C(F)(F)F)C[C@@H]2C)SC2=N[C@@](C)(c3ccc(Cl)nc3)[C@@H](c3ccc(Cl)c(F)c3)N21 .
Resp: ≥ 50%
